assay.overview: Cell viability measurements
Type: cell-based
conditions.used: log concentration [M] -8.67778; two replicate columns
quantity: viability at 0.0021 µM (%)
Response body: numeric value in %, unit text excluded.

> print(dat)
                                   compound  assay.result
1  Cc1ccc(C(=O)N(CCCN)[C@@H](c2nc3cc(Cl)ccc3c(=O)n2Cc2ccccc2)C(C)C)cc1 [compound 3]          99.1

Incoming: Endpoint output: viability at 0.0021 µM of O=C1Nc2ccc(I)cc2C1=Cc1cc(Br)c(O)c(Br)c1 [compound 4] . Value?
Outgoing: 100

* * *

study.target: GABARAPL2 (Homo sapiens, UniProt P60520)
Sequence (P60520 whole entry): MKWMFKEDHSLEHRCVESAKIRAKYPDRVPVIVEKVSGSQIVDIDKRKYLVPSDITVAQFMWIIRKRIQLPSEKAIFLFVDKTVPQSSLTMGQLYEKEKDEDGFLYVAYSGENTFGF
conditions.used: residue Y49; GABARAPL2:ligand molar ratio 1:2
quantity: CSP

> print(dat)
                                   molecule  quantity  assay.result
1  O=C1Nc2ccc(Br)cc2C1=Cc1cc(O)c(O)c(Br)c1 [compound 1]       CSP     0.064 ppm
2  O=C1Nc2ccc(I)cc2C1=Cc1cc(Br)c(O)c(Br)c1 [compound 4]       CSP     0.148 ppm
3  O=c1cc(-c2ccccc2)c2c(O)cc(O)cc2o1 [compound 2]       CSP     0.033 ppm

Now for the molecule whose CSP we want.
Incoming: Endpoint output: CSP of Cc1ccc(C(=O)N(CCCN)[C@@H](c2nc3cc(Cl)ccc3c(=O)n2Cc2ccccc2)C(C)C)cc1 [compound 3] . Value?
Outgoing: 0.010 ppm
